experiment: folding enthalpy; higher = less favourable; fluorescence melt of hairpins on a sequencing array, two-state fit; details: sodium 0.088 M
ENDPOINT_LABEL: folding enthalpy
Give the value; after it, write the unit.

1) GTTGCCGGAAACAGCAAC (((((.(....).))))) = -27.4 kcal/mol

Name the recorded folding enthalpy for GCGGTGTTCCGC ((((....)))) .
-20 kcal/mol

And what about the sequence GCGGATAGCCGC ((((....)))) ?
-26.6 kcal/mol

And what about the sequence GCTTCGAAAGAAGC (((((....))))) ?
-26.6 kcal/mol

And what about the sequence GATCGTATACACGATC ((((((....)))))) ?
-38.4 kcal/mol

And what about the sequence GTCGCCGGAAACGACGAC ((((.((....)).)))) ?
-43.5 kcal/mol

And what about the sequence GATCAGATTCTGATC ((((((...)))))) ?
-29.7 kcal/mol

----------
test: melting temperature; fluorescence melt of hairpins on a sequencing array, two-state fit, raised by 9.35 °C to match UV melts; conditions: sodium 0.088 M
Each entry below lists one item and its recorded Tm value.

Sample records with Tm:
1) GCGGTGACGAAAGTCCGC (((..(((....)))))) = 57.2 °C
2) GCCAGACCGAAAGGTGGC (((..(((....)))))) = 53.7 °C
3) GATCAAAAACTTGATC ((((((....)))))) = 34.9 °C
4) GCACATGGAAACATATGC (((.(((....))).))) = 36 °C
5) GTATAGTCGAAAGACTAC (((..(((....)))))) = 32.6 °C

Below: the item to evaluate.
Name the recorded Tm for GCTTAGCGAAAGCTCGGC ((..(((....)))..)) .
36.7 °C

----------
experiment: melting temperature; fluorescence melt of hairpins on a sequencing array, two-state fit, raised by 9.35 °C to match UV melts; conditions: sodium 0.088 M
ENDPOINT_LABEL: Tm (°C)
API: value field is a number in °C; no unit string.

Sample records with Tm:
1. GTCTTGGGAAACCAGGAC (((.(((....))).))) = 47.2
2. GCATCGCGAAAGCACTGC (((..((....))..))) = 38.5
3. GTTCGCGAAAGCGCCAAC ((((((....)))..))) = 25.6
4. GTTGTGGGAAACTACGAC ((.((.(....).)).)) = 33.8
5. GATCATGTACATGATC ((((((....)))))) = 56.5
6. GCGGTCGCCGC ((((...)))) = 60.6
7. GATCCGGCTACGGATC ((((((....)))))) = 67.8
8. GGGATCCGAAAGGAACCC (((.(((....))).))) = 56.7

Name the recorded Tm for GATAATGGAAACATTGTC ((.((((....)))).)) .
36.2

And what about the sequence GTGTTCGAAAGAAGACAC ((((((....)))..))) ?
37.9

And what about the sequence GCAAAGCGAAAGCTTGGC ((.((((....)))).)) ?
62.9

And what about the sequence GACTACGAAAGTAAAGTC ((((((....)))..))) ?
36.5

----------
assay: folding enthalpy; higher = less favourable; fluorescence melt of hairpins on a sequencing array, two-state fit; conditions: sodium 0.088 M
Classification field: enter fulfilled for folding enthalpy values not below -100 kJ/mol, not fulfilled for values below it.

Known results for sequences:
1. GGATCCGAAAGGAATCC ((((((....))).))) = not fulfilled
2. GCTTGGCGAAAGCTAGGC ((.(.((....)).).)) = fulfilled
3. GGGACCGAAAGGTTACCC ((((((....)))..))) = fulfilled

Item GAGGTTGGAAACAACCTC (((((((....))))))) with folding enthalpy of -100 kJ/mol or above?
not fulfilled

And what about the sequence GCAACCGGAAACGGCTGC (((.(((....))).))) ?
not fulfilled

And what about the sequence GTCAGCGAAAGCTTAGAC ((((((....)))..))) ?
fulfilled

And what about the sequence GATGCGGGAAACCGCGTC ((.((((....)))).)) ?
fulfilled

And what about the sequence GCGACGTCGAAAGACCGC (((..(((....)))))) ?
not fulfilled

And what about the sequence GGACACGAAAGTGTTTCC ((((((....)))..))) ?
fulfilled

And what about the sequence GATCCCACAGGGATC ((((((...)))))) ?
not fulfilled

And what about the sequence GATCACCGGAGTGATC ((((((....)))))) ?
not fulfilled

----------
assay: folding enthalpy; higher = less favourable; fluorescence melt of hairpins on a sequencing array, two-state fit; conditions: sodium 0.088 M
Classification field: enter Satisfied for folding enthalpy values not below -40 kcal/mol, Not satisfied for values below it.

Known results for sequences:
1) GATCCTTCTGAGGATC ((((((....)))))) = Satisfied
2) GGGGTGGGAAACCACTCC ((.((((....)))).)) = Satisfied
3) GGAAGTGGAAACATTTCC ((((.((....)).)))) = Satisfied
4) GATCCATTTATGGATC ((((((....)))))) = Not satisfied

Now consider a different sequence.
Item GATCGTACCTACGATC ((((((....)))))) with folding enthalpy of -40 kcal/mol or above?
Not satisfied

----------
Each entry below lists one item and its recorded folding enthalpy value.
experiment: folding enthalpy; higher = less favourable; fluorescence melt of hairpins on a sequencing array, two-state fit; settings: sodium 0.088 M
API: value field is a number in kcal/mol; no unit string.

Sample records with folding enthalpy:
1) GATCTAAGCATAGATC ((((((....)))))) = -32.2
2) GGGGTAGAAATACCCC ((((((....)))))) = -34.9
3) GATGAGCGAAAGCTTATC (((.(((....))).))) = -28.3
4) GCTATCGGAAACGACAGC (((.(((....))).))) = -30.9
5) GCGTACTCACGC ((((....)))) = -19.5
6) GTATAGCGAAAGCTTAC (((.(((....)))))) = -12.8

Name the recorded folding enthalpy for GACATTGGAAACGATGTC (((((.(....).))))) .
-36.1

And what about the sequence GATCAACCCCTTGATC ((((((....)))))) ?
-35.2

And what about the sequence GGGCCGCGAAAGCGCCCC (((.(((....))).))) ?
-12.4

----------
Each entry below lists one item and its recorded Tm value.
assay: melting temperature; fluorescence melt of hairpins on a sequencing array, two-state fit, raised by 9.35 °C to match UV melts; settings: sodium 0.088 M
API: value field is a number in °C; no unit string.

Sample records with Tm:
1. GGCCAACGAAAGTTTGCC (((.(((....))).))) = 50.7
2. GCGTACGAAAGTACCCGC ((((((....)))..))) = 40.2
3. GGGTCGCCGAAAGGCCCC (((..(((....)))))) = 46.4

Name the recorded Tm for GGTGTGCGAAAGCATACC (((.(((....))).))) .
63.6

----------
test: folding enthalpy; higher = less favourable; fluorescence melt of hairpins on a sequencing array, two-state fit; conditions: sodium 0.088 M
ENDPOINT_LABEL: folding enthalpy (kcal/mol)
API: value field is a number in kcal/mol; no unit string.

Sample records with folding enthalpy:
1. GAACAAGGAAACTCGTTC ((((.((....)).)))) = -16.4
2. GGTCCGGGAAACCGGGCC ((.((((....)))).)) = -32.5
3. GATCTCGGTGGAGATC ((((((....)))))) = -4.26
4. GGAGCGGGAAACCGCCCC ((.((((....)))).)) = -16.3
5. GCATGGCGAAAGCGAGGC ((.(.((....)).).)) = -19
6. GGCTCAGCGAAAGCTGCC (((..(((....)))))) = -12.3
7. GCTAAGGGAAACTTTAGC (((((.(....).))))) = -21.1
8. GATCTGCTGCCAGATC ((((((....)))))) = -39.2

Name the recorded folding enthalpy for GATCCATCATTGGATC ((((((....)))))) .
-35.8

And what about the sequence GCACTGCGAAAGCCGCGC ((.(.((....)).).)) ?
-21

And what about the sequence GTTGACGAAAGTCCAAC ((((((....))).))) ?
-17.7

And what about the sequence GGTGAACGAAAGTTAACC (((.(((....))).))) ?
-34.1

And what about the sequence GATCCCTCCCGGGATC ((((((....)))))) ?
-40.5
